- assay.info: Clearance in rat at 1 mg/kg, iv
- Assay type: ADME, organism-based
- Parameters: dose 1 mg/kg, route intravenous
- condition: in vivo
outcome.measure: clearance (mL/min/kg)
Please state the figure in mL/min/kg; there is no need to write the unit.

Request: What does the record list as clearance for "Cc1nc2sc(C(=O)NCc3ccncc3)c(N)c2c(C)c1Cl" ?
Response: 104

====

- assay.info: AUC in rat at 1 mg/kg, iv
- Assay type: ADME, organism-based
- Design: dose 1 mg/kg, route intravenous
- condition: plasma
outcome.measure: AUC (ng·h/mL)
Numbers only here, please. The scale is ng·h/mL.

Request: Record request: AUC value, item "Cc1nc2sc(C(=O)NCc3ccncc3)c(N)c2c(C)c1Cl"
Response: 175

====

- measurement.target: Muscarinic acetylcholine receptor M4 (Homo sapiens)
- Sequence (whole entry): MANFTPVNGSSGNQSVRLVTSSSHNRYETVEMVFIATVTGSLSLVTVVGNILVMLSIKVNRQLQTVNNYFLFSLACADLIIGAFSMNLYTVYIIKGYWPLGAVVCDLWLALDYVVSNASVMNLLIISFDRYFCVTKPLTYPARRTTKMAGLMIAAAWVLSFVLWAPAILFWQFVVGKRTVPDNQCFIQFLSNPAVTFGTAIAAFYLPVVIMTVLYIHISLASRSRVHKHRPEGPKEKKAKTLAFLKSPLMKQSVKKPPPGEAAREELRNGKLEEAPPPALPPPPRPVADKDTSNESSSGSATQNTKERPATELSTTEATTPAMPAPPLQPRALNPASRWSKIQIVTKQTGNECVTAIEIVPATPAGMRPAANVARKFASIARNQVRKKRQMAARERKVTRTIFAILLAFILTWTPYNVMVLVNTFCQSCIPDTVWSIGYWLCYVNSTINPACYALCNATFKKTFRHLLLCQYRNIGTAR
- assay.info: Positive allosteric modulation of human muscarinic M4 receptor expressed in CHO-K1 cells assessed as leftward shift in acetylcholine response treated for 144 secs prior to acetylcholine addition measured for 5 mins by Fluo-4-AM based calcium mobilization assay relative to control
- Assay type: functional, cell-based
outcome.measure: %max (%)
Output spec: scalar in %, unitless text.

Request: Which measured %max value corresponds to "Cc1nc2sc(C(=O)NCCc3ccccn3)c(N)c2c(C)c1Cl" ?
Response: 61.7

Request: Entry "Cc1nc2sc(C(=O)NC3COC3)c(N)c2c(C)c1Cl" has what %max?
Response: 69.9

Request: Item "Cc1cc(CNC(=O)c2sc3nc(C)c(Cl)c(C)c3c2N)ccn1" has what recorded %max?
Response: 75.8

Request: Request the reported %max associated with "Cc1nc2sc(C(=O)NCc3nccs3)c(N)c2c(C)c1Cl"
Response: 65.1

Request: %max lookup needed for "COc1ccc(CNC(=O)c2sc3nc(C)c(Cl)c(C)c3c2N)cc1" , thanks.
Response: 83.6

Request: %max lookup needed for "Cc1nc2sc(C(=O)NCc3ccc(Cl)cc3)c(N)c2c(C)c1Cl" , thanks.
Response: 33.2

Request: For the molecule shown here, Cc1nc2sc(C(=O)NC(C)c3ccccn3)c(N)c2c(C)c1Cl (centres undefined) , give the reported %max.
Response: 51.1

Request: Which %max is reported for this molecule? "Cc1nc2sc(C(=O)NC3CC3)c(N)c2c(C)c1Cl"
Response: 94

Request: Requested read-out: %max. Entry: "Cc1nc2sc(C(=O)NCc3ccccc3Cl)c(N)c2c(C)c1Cl"
Response: 32.4

Request: May I ask what %max has been recorded for Cc1nc2sc(C(=O)NC3CCOC3)c(N)c2c(C)c1Cl (centres undefined) ?
Response: 92.2

Request: Please report the recorded %max for "Cc1nc2sc(C(=O)NCc3ccc4c(c3)OCO4)c(N)c2c(C)c1Cl" .
Response: 71.7

Request: Name the recorded %max for "Cc1nc2sc(C(=O)NCc3cccnc3)c(N)c2c(C)c1Cl" .
Response: 84.9

Request: Fill in: %max of "Cc1nc2sc(C(=O)NC(C)(C)C)c(N)c2c(C)c1Cl" is ___
Response: 68.3

Request: Reported %max for "Cc1nc2sc(C(=O)NCc3ccccn3)c(N)c2c(C)c1Cl" : what is it?
Response: 74.1

Request: I have this molecule here, "Cc1nc2sc(C(=O)NC3CCCCC3)c(N)c2c(C)c1Cl" , and I need its recorded %max.
Response: 41.4

Request: So what does the record say about %max for Cc1nc2sc(C(=O)NC(C)c3ccncc3)c(N)c2c(C)c1Cl (centres undefined) ?
Response: 64.1

Request: Please report the recorded %max for "Cc1nc2sc(C(=O)NCC3CCCCC3)c(N)c2c(C)c1Cl" .
Response: 69.7

Request: What value of measured %max is listed for "Cc1nc2sc(C(=O)NCc3ncccn3)c(N)c2c(C)c1Cl" ?
Response: 51

Request: Could you share which %max value was measured for "Cc1nc2sc(C(=O)NCc3ccc(C(F)(F)F)cc3)c(N)c2c(C)c1Cl" ?
Response: 33.6

Request: May I ask what %max has been recorded for "Cc1nc2sc(C(=O)NCc3ccncc3)c(N)c2c(C)c1Cl" ?
Response: 94.1

Request: I would be grateful if you could share the reported %max for Cc1nc2sc(C(=O)NCCC3CCCN3C)c(N)c2c(C)c1Cl (centres undefined) .
Response: 38

Request: Which value of %max has been reported for "Cc1nc2sc(C(=O)NCc3ccc(F)c(F)c3)c(N)c2c(C)c1Cl" in the records?
Response: 42

Request: Value lookup for %max; key = "Cc1nc2sc(C(=O)NCc3ccccc3)c(N)c2c(C)c1Cl"
Response: 81

Request: Any idea what its %max is? The molecule is "COCCCNC(=O)c1sc2nc(C)c(Cl)c(C)c2c1N"
Response: 85.7

====

- measurement.target: Muscarinic acetylcholine receptor M3 (Rattus norvegicus)
- Sequence (P08483 whole entry): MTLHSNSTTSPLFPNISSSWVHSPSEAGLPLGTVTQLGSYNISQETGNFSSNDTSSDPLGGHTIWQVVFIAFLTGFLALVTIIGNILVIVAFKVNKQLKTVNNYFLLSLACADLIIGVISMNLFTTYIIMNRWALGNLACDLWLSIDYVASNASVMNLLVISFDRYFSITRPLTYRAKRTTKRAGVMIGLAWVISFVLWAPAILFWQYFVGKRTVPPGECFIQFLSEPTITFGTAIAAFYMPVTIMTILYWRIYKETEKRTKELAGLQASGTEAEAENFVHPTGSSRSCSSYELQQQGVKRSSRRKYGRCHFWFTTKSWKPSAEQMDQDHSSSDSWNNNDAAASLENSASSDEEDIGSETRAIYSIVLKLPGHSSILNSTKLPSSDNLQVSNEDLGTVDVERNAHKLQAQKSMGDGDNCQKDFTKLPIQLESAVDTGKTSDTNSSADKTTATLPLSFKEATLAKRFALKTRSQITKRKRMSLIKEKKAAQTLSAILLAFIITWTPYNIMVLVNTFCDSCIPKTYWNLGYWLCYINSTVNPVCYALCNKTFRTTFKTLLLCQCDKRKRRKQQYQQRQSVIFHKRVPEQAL
- assay.info: Positive allosteric modulation of rat muscarinic M3 receptor assessed as acetylcholine response
outcome.measure: EC50

Request: Lab note: need EC50 for "Cc1nc2sc(C(=O)NC3CC3)c(N)c2c(C)c1Cl" on Muscarinic acetylcholine receptor M3 (Rattus norvegicus), anyone have it?
Response: > 30 µM

Request: Write down the reported EC50 of "Cc1nc2sc(C(=O)NCc3ccncc3)c(N)c2c(C)c1Cl" , test system: Muscarinic acetylcholine receptor M3 (Rattus norvegicus).
Response: > 30 µM

====

- measurement.target: Muscarinic acetylcholine receptor M4 (Homo sapiens, UniProt P08173)
- Sequence (P08173 whole entry): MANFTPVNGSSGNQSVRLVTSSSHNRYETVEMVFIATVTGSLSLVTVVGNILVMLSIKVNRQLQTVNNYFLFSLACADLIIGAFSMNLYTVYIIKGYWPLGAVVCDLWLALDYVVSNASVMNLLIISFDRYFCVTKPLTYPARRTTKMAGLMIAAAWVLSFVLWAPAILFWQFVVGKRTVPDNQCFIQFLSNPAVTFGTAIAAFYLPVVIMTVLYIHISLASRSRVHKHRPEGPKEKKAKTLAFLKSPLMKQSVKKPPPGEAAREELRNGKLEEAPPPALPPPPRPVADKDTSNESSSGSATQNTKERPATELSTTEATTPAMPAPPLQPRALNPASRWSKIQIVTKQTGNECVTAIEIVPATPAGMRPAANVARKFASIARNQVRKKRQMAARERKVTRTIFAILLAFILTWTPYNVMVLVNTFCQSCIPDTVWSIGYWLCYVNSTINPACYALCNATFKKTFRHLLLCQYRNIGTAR
- assay.info: Positive allosteric modulation of human muscarinic M4 receptor expressed in CHO-K1 cells assessed as leftward shift in acetylcholine response treated for 144 secs prior to acetylcholine addition measured for 5 mins by Fluo-4-AM based calcium mobilization assay
- Type: functional, cell-based
- condition: read-out: EC50
Binary call on EC50 with cut-off 200 nM: strictly below means true (1), and equality or higher means false (0).

Request: Please check: EC50 for "CCOc1ccc(NC(=O)c2sc3nc(C)c(Cl)c(C)c3c2N)cc1" , strictly under 200 nM or not?
Response: false (0)

Request: # check: EC50 < 200 nM for "Cc1nc2sc(C(=O)NCc3ccc4c(c3)OCO4)c(N)c2c(C)c1Cl"
Response: true (1)

Request: Given "Cc1nc2sc(C(=O)NC3COC3)c(N)c2c(C)c1Cl" , is recorded EC50 strictly lower than 200 nM?
Response: false (0)

Request: In the record for Cc1nc2sc(C(=O)NCCC3CCCN3C)c(N)c2c(C)c1Cl (configuration not stated) , is EC50 less than 200 nM?
Response: false (0)

Request: Just wondering, is EC50 of Cc1nc2sc(C(=O)NC(C)c3cccnc3)c(N)c2c(C)c1Cl (configuration not stated) below 200 nM?
Response: false (0)

Request: Just wondering, is EC50 of "Cc1nc2sc(C(=O)NC(C)C)c(N)c2c(C)c1Cl" below 200 nM?
Response: true (1)

Request: API: query returns whether the molecule falls strictly under 200 nM in EC50. Query: "Cc1nc2sc(C(=O)NCc3ccc(F)c(F)c3)c(N)c2c(C)c1Cl"
Response: true (1)

Request: Does the reported EC50 of the following molecule sit strictly below 200 nM? Cc1nc2sc(C(=O)NC(C)c3ccccn3)c(N)c2c(C)c1Cl (configuration not stated)
Response: false (0)

Request: For this molecule, is EC50 lower than 200 nM? "Cc1nc2sc(C(=O)NCC3CCCCC3)c(N)c2c(C)c1Cl"
Response: false (0)

Request: EC50 strictly < 200 nM for this molecule? "Cc1nc2sc(C(=O)NCc3nccs3)c(N)c2c(C)c1Cl"
Response: false (0)

Request: Bench note: check whether "Cc1nc2sc(C(=O)NCc3cccnc3)c(N)c2c(C)c1Cl" shows EC50 below 200 nM
Response: false (0)

Request: Quick check: EC50 of "COc1ccc(NC(=O)c2sc3nc(C)c(Cl)c(C)c3c2N)cc1" under 200 nM?
Response: false (0)
